I'd be grateful if you could share measured pIC50 for these entries.
- subject.of.test: IDH1 R132C (Homo sapiens, UniProt O75874, R132C)
- Sequence (O75874 whole entry R132C): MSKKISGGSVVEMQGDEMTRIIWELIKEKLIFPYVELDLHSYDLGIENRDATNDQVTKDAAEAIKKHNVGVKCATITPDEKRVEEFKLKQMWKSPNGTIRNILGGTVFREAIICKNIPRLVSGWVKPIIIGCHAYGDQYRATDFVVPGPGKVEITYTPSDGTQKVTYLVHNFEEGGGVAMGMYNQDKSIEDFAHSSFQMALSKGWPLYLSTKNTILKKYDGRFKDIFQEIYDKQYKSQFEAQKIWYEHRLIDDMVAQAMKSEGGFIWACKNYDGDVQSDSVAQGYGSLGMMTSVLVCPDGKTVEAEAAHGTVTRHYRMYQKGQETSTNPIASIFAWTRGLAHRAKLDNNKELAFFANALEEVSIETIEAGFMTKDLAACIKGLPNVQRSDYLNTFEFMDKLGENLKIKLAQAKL
- assay.explanation: IDH1 R132C enzymatic assay (NADPH depletion coupled to diaphorase/resazurin)
- Type: biochemical
- condition.info: IDH1 R132C enzymatic inhibition, IC50 class
pIC50: −log10 of the molar value.

These recorded examples may help you get a feel for the data.
INSERT INTO assay_data (molecule, measured_property, measured) VALUES
  ('CCc1cccc(CC)c1-n1c(C)c(C(=O)NC2CCCC(N)C2)cc(-c2nc(-c3ccc(Cl)cc3)cs2)c1=O (mixture of isomers)', 'pIC50', '5.30 to 6.00'),
  ('CCc1cccc(CC)c1-n1c(C(C)C)c(C(=O)N[C@H](C)CO)cc(-c2nc(-c3ccc(Cl)cc3)cs2)c1=O', 'pIC50', '5.30 to 6.00'),
  ('CCc1cccc(CC)c1-n1c(CC(C)C)c(C(=O)N2CCNCC2)cc(-c2ccn(-c3ccccc3)n2)c1=O', 'pIC50', '5.30 to 6.00'),
  ('CCc1cccc(CC)c1-n1c(C)c(C(=O)N2CCN[C@H](C(=O)O)C2)cc(-c2nc(-c3ccc(Cl)cc3)cs2)c1=O', 'pIC50', '6.00 to 6.52');

I have 3 molecules here; please give me pIC50 for each one.
1. CCc1ccc(C)cc1-n1c(C=C(C)C)c(C(=O)N2CCNCC2)cc(-c2nc(-c3ccc(Cl)cc3)cs2)c1=O
2. CCc1cccc(CC)c1-n1c(CO)c(C(=O)NC)cc(-c2nc(-c3ccc(Cl)cc3)cs2)c1=O
3. CC(=O)Nc1ccccc1-n1c2c(cc(-c3nc(-c4ccc(Cl)cc4)cs3)c1=O)C(=O)CC(C)(C)C2

> 6.52
5.30 to 6.00
4.70 to 5.30
